System: NCI-H226 lung
Measurement protocol: NCI tumour cell line growth inhibition, 48 h
# key: entry, value: TGI
Attribute measured: TGI

INSERT INTO measurements (molecule, readout_value) VALUES
  ('O=[N+]([O-])c1ccc(/C=N\Nc2ccc([N+](=O)[O-])cn2)cc1', '> 100 µM'),
  ('CCCC(=O)OCC1(CO)C/C(=C/CC(C(C)C)C(C)C)C(=O)O1 (centres undefined)', '> 100 µM'),
  ('CC1(C)C(=O)N(O)C(C)(C)N1N=O', '> 10 µM'),
  ('CCOc1ncn(-c2ccc(NC(=S)Nc3cnccn3)cc2)n1', '> 10 µM'),
  ('COCOc1cc(OC)c(Br)cc1C/C(=N/O)C(=O)OC', '> 100 µM'),
  ('COc1ccc(/C=N/NC(=O)c2ccccc2Nc2ccccc2C(=O)N/N=C/c2ccc(OC)cc2)cc1', '> 100 µM'),
  ('CN/C=C(/c1ccc(OC)cc1)C(O)c1ccc(OC)c(OC)c1 (centres undefined)', '> 100 µM'),
  ('N#Cc1c(N)c2c(c(-c3ccccc3)c1-c1ccccc1)C(=O)N(Nc1ccccc1)C2=O', '> 100 µM'),
  ('C=CC(=O)NCCOc1cccc(Nc2cc(NCCCNC(=O)C3CCC3)c(Br)cn2)c1', '> 25 µM');

* * *

Test system: COLO 205 colon
Measurement protocol: NCI tumour cell line growth inhibition, 48 h
Attribute measured: TGI

INSERT INTO measurements (test_smiles, tested_system, attribute_measured, readout_value) VALUES
  ('Cc1ccc(/C=C/C(=O)C(C)C)cc1', 'COLO 205 colon', 'TGI', '> 100 µM'),
  ('O=c1oc2ccccc2cc1-c1csc(Nc2cc(Cl)cc(Cl)c2)n1', 'COLO 205 colon', 'TGI', '> 100 µM'),
  ('O=[N+]([O-])c1ccc(/C=N\Nc2ccc([N+](=O)[O-])cn2)cc1', 'COLO 205 colon', 'TGI', '> 100 µM');

* * *

Tested on: BT-549 breast
Measurement protocol: NCI tumour cell line growth inhibition, 48 h
# key: entry, value: TGI
Attribute measured: TGI

INSERT INTO assay_data (compound, tested_system, readout_value) VALUES
  ('CCOc1ncn(-c2ccc(NC(=S)Nc3cnccn3)cc2)n1', 'BT-549 breast', '> 10 µM'),
  ('OC12CC3c4ccccc4NC3C3Oc4cccc5c4C31CCN(CC1CC1)C2C5 (stereo unspecified)', 'BT-549 breast', '34.7 µM'),
  ('C=C1C(=O)CCC1C(=O)O (stereo unspecified)', 'BT-549 breast', '> 100 µM'),
  ('C=CC(=O)NCCOc1cccc(Nc2cc(NCCCNC(=O)C3CCC3)c(Br)cn2)c1', 'BT-549 breast', '1.93 µM'),
  ('CC(C)(C)OC(=O)NNC(=O)C1Cc2ccccc2OC1=O (stereo unspecified)', 'BT-549 breast', '> 100 µM'),
  ('C=CCOc1ccc(C2(c3ccc(OCC=C)cc3)C(=O)Nc3ccccc32)cc1', 'BT-549 breast', '> 10 µM');

* * *

System: OVCAR-3 ovarian
Measurement protocol: NCI tumour cell line growth inhibition, 48 h
# key: entry, value: TGI
Attribute measured: TGI

INSERT INTO results (compound, readout_value) VALUES
  ('CC1=CSC(O)(c2ccc(Cl)cc2)c2noc(=O)n21 (centres undefined)', '> 100 µM'),
  ('CN1C(=O)N(C)C2C1NN=c1s/c(=C\c3c[nH]c4ccccc34)c(=O)n12 (centres undefined)', '> 100 µM'),
  ('O=C(c1ccccn1)c1nc(-c2ccc(Cl)c(Cl)c2)nc2ccc(Cl)cc12', '> 100 µM'),
  ('CC(C)(C)CC(C)(C)N(CSc1ccc(Cl)cc1)CSc1ccc(Cl)cc1', '4.25 µM'),
  ('Clc1ccccc1-c1nc(-c2ccncc2)no1', '> 100 µM'),
  ('CC(C)C(C/C=C1/CC(CO)(COC(=O)C(C)(C)C)OC1=O)C(C)C (centres undefined)', '29.9 µM'),
  ('Nc1c(S(=O)(=O)O)cc(Nc2cccc(S(N)(=O)=O)c2)c2c1C(=O)c1ccccc1C2=O', '> 100 µM'),
  ('O=C(CSc1nnc(Cc2ccccc2)o1)Nc1ccccc1Cl', '> 100 µM'),
  ('COc1ccc2c(c1)C(=O)c1c-2c(OCCN(C)C)nc2cc(OC)ccc12', '4.06 µM');
